Each record here notes measured GI50.
test system: KM12 colon; assay: NCI tumour cell line growth inhibition, 48 h

- molecule: "C#CCNC(=O)CC[C@]1(C)[C@H]2CC[C@@H]3[C@@H]([C@@](C)(O)CCC=C(C)C)CC[C@@]3(C)[C@]2(C)CC[C@H]1C(=C)C"
  GI50: "38.5 µM"
- molecule: "COc1ccc(-c2cc(/C=C3\\C(=O)Nc4ccc(OC)cc43)[nH]n2)cc1"
  GI50: "1.62 µM"
- molecule: "Cc1cc(-c2nc(-c3ccc(OC(F)(F)F)cc3)no2)nn1Cc1ccnc(N2CCN(C3CC3)CC2)c1"
  GI50: "6.88 µM"
- molecule: "OC(COc1cccc2ccccc12)CN1CCN(c2ccccc2)CC1 (centres undefined)"
  GI50: "16.1 µM"

* * *

system: OVCAR-3 ovarian; experiment: NCI tumour cell line growth inhibition, 48 h; in the data active means GI50 below about 0.43 µM; inactive means the rest
Outcomes: T = active, F = inactive

- compound: "N#CN1CCC[C@H]1C(=O)N1CCc2c(-c3[nH]nc4ncccc34)cccc21"
  class_label: "T"
- compound: "COc1ccc(C2=C(c3cc(OC)c(OC)c(OC)c3)C(=O)CC2)cc1"
  class_label: "T"
- compound: "CCC[CH2][Sn]([CH2]CCC)([O]C(=O)c1nccnc1N)[O]C(=O)c1nccnc1N"
  class_label: "F"
- compound: "CC1=C([Se]CC(OC(=O)[C@@H](CO)NC(=O)OC(C)(C)C)C(=O)NC(C)(C)C)C(=O)c2ccccc2C1=O (some centres not stated)"
  class_label: "F"
- compound: "Cc1cc(-c2nc(-c3ccc(OC(F)(F)F)cc3)no2)nn1Cc1ccnc(N2CCN(C3CC3)CC2)c1"
  class_label: "F"
- compound: "CC[C@H](C)n1cc(C)c2c(C(=O)NCc3c(C)cc(C)[nH]c3=O)cc(-c3ccc(N4CCNCC4)nc3)cc21"
  class_label: "F"
- compound: "C=C1CCC2C3(C)COC(c4ccc(SC)cc4)OC3CCC2(C)C1C/C=C1/C(=O)OCC1O (configuration not stated)"
  class_label: "F"
- compound: "C/C(=C\\CCc1ccoc1)CC/C=C(\\C)CCCN1CCC(CO)CC1"
  class_label: "F"
- compound: "C=C(C)[C@@H]1CCC2=C[C@@H](OC2=O)[C@@H](C(=C)C)C(=O)/C=C(/C)C(=O)C1"
  class_label: "F"
- compound: "CN(C)CCN=Cc1c2ccccc2c(=O)n2c1oc1ccccc12"
  class_label: "F"
- compound: "CC(=O)OCC1OC(OC2=C(CC=C(Cl)Cl)C(=O)c3ccccc3C2=O)C(OC(C)=O)C(OC(C)=O)C1OC(C)=O (configuration not stated)"
  class_label: "F"
- compound: "COc1cc(C2CC(c3cc(C)ccc3C)=NN2c2ccc(S(=O)(=O)NC(=O)NCc3ccccc3)cc2)cc(OC)c1OC (configuration not stated)"
  class_label: "F"

* * *

Each record here notes measured TGI.
system: NCI-H23 lung; experiment: NCI tumour cell line growth inhibition, 48 h
quantity_measured: TGI

- compound: "CSc1ccc2c(cc1=O)C(NC(=O)c1ccc(OC(C)=O)cc1)CCc1cc(O)c(O)c(O)c1-2 (stereo unspecified)"
  recorded_value: "67.7 µM"
- compound: "O=C(NNC(=O)c1ccncc1)c1ccncc1"
  recorded_value: "> 100 µM"
- compound: "Cc1ccc(S(=O)(=O)Oc2ccc(OS(=O)(=O)c3ccc(C)cc3)c3c2C(=O)c2ccccc2C3=O)cc1"
  recorded_value: "> 100 µM"
- compound: "COc1ccc(/C=N/NC(=O)NCCCN(C)C)cc1"
  recorded_value: "> 100 µM"
- compound: "C=C(C)[C@@H]1CCC2=C[C@@H](OC2=O)[C@@H](C(=C)C)C(=O)/C=C(/C)C(=O)C1"
  recorded_value: "60.4 µM"
- compound: "COc1ccc(-n2c(C)nc3ccc(NC4OCC(O)C(O)C4O)cc3c2=O)cc1 (stereo unspecified)"
  recorded_value: "> 100 µM"
- compound: "Cc1nc(/N=C(\\N)NC(=O)Nc2ccccc2Cl)sc1C"
  recorded_value: "> 74.9 µM"
- compound: "COC(=O)c1ccc([N+](=O)[O-])c(O)c1"
  recorded_value: "> 100 µM"
- compound: "O=S1(=O)CS(=O)(=O)OCCCO1"
  recorded_value: "> 100 µM"
- compound: "C[C@H]1CC(=O)C2=CCCC3(SCCCS3)[C@@H]2[C@H]1CO"
  recorded_value: "> 100 µM"
- compound: "CCOc1ccc2c(ccc(/C=C\\c3cc(C)c4cccnc4c3O)[n+]2C)c1"
  recorded_value: "43.5 µM"

* * *

test system: OVCAR-5 ovarian; experiment: NCI tumour cell line growth inhibition, 48 h
Each record here notes measured TGI.
quantity_measured: TGI

- compound: "CO/N=C1/c2sccc2[C@H](NC(=O)C(F)(F)F)[C@@H]1O"
  recorded_value: "> 100 µM"
- compound: "Cc1nc(/N=C(\\N)NC(=O)Nc2ccccc2Cl)sc1C"
  recorded_value: "> 100 µM"
- compound: "[C-]#[O+].[Cl][Sn]([Cl])[Cl].[Cl][Sn]([Cl])[Cl].[Pt].c1ccncc1"
  recorded_value: "> 100 µM"
- compound: "Cc1c(C(=O)O)c2cc3ccccc3cc2c(=O)n1C"
  recorded_value: "> 10 µM"
- compound: "O=C1NC(=O)C(C(c2ccc(Cl)cc2)C2C(=O)NC(=O)NC2=O)C(=O)N1"
  recorded_value: "> 100 µM"
- compound: "N#Cc1c(-c2ccccc2)cc(-c2ccccc2)n(CCCCC(=O)NO)c1=O"
  recorded_value: "10.9 µM"
- compound: "CCc1c(Cl)nc(Cl)nc1Cl"
  recorded_value: "1.3 µM"
- compound: "O=c1c2cc(Br)cc(Br)c2[nH]c(=S)n1-c1ccccc1"
  recorded_value: "> 100 µM"
- compound: "O=c1cc(-c2ccccc2)oc2ccc(Oc3nnnn3-c3ccccc3)cc12"
  recorded_value: "> 100 µM"
- compound: "CC(C)N=C(NC#N)NS(=O)(=O)c1cnccc1Nc1ccc(Cl)cc1"
  recorded_value: "> 100 µM"
- compound: "CC1=C([Se]CC(OC(=O)[C@@H](CO)NC(=O)OC(C)(C)C)C(=O)NC(C)(C)C)C(=O)c2ccccc2C1=O (some centres not stated)"
  recorded_value: "3.73 µM"
- compound: "O=C(CCc1ccc(O)c(O)c1)NCCc1cc(OCc2ccccc2)cc(OCc2ccccc2)c1"
  recorded_value: "30.1 µM"
- compound: "COc1ccc(/C=C/c2cc(N3CCOCC3)c3cc(F)c(F)cc3n2)cc1OC"
  recorded_value: "11.9 µM"
- compound: "CSc1nc2c(N)ncnc2n1C"
  recorded_value: "> 100 µM"
- compound: "O=c1c2ccccc2nc(-c2ccccc2)n1NC(=S)Nc1ccc(Cl)cc1[N+](=O)[O-]"
  recorded_value: "> 100 µM"
- compound: "CC(/C=C/c1ccc([N+](=O)[O-])o1)=N/N1CC(CN2CCOCC2)OC1=O (configuration not stated)"
  recorded_value: "> 100 µM"
- compound: "O=C(N/N=C1/C(=O)c2c3ccccc3cc3cccc1c23)c1cccc(Cl)c1"
  recorded_value: "> 100 µM"
- compound: "CN(C)CC(CO)(CN(C)C)CN(C)C"
  recorded_value: "> 100 µM"
- compound: "CCC1CC(=O)N(SCC(N)C(=O)O)C1=O (configuration not stated)"
  recorded_value: "> 100 µM"
- compound: "C[C@H]1CC(=O)C2=CCCC3(SCCCS3)[C@@H]2[C@H]1CO"
  recorded_value: "> 100 µM"
- compound: "C=C(C)[C@@H]1CCC2=C[C@@H](OC2=O)[C@@H](C(=C)C)C(=O)/C=C(/C)C(=O)C1"
  recorded_value: "> 100 µM"
- compound: "c1ccc(-c2nn(-c3ccccc3)[n+](-c3cccc4ccccc34)n2)cc1"
  recorded_value: "63.2 µM"
- compound: "CC(C)c1cccc(C(C)C)c1NC(=O)C(=O)C(C(=O)c1ccc2ccccc2c1)C1OC(=O)c2ccccc21 (configuration not stated)"
  recorded_value: "> 100 µM"
- compound: "CCCN(CCC)CCCNC(=O)c1cc2c(-c3ccc(OC)c(OC)c3)nn(C)c2s1"
  recorded_value: "> 100 µM"
- compound: "O=C1c2ccccc2-c2c1c1ccccc1c(=O)n2CCCN1CCN(CCCn2c3c(c4ccccc4c2=O)C(=O)c2ccccc2-3)CC1"
  recorded_value: "> 100 µM"
- compound: "C/C(=N/NC(=O)C(N)=O)C(CC(C(=O)Nc1ccccc1C)/C(C)=N\\NC(=O)C(N)=O)C(=O)Nc1ccccc1C (configuration not stated)"
  recorded_value: "> 100 µM"
- compound: "CCN(CC)CCNC(=O)c1cccc2cc3ccccc3nc12"
  recorded_value: "27.7 µM"
- compound: "CCCCN(CCCC)CCCN=c1nc2c(c(N)n1-c1ccccc1)c(=S)n(-c1ccccc1)c(=S)n2-c1ccccc1"
  recorded_value: "3.24 µM"
- compound: "COC(=O)C1CCC(Nc2cccc(C(F)(F)F)c2)=N1 (configuration not stated)"
  recorded_value: "> 100 µM"
- compound: "CC1=C[C@]2(CC(C)C3C(CC4(C)C5CCC6C(C)(C)C(=O)CC[C@@]67C[C@@]57CC[C@]34C)O2)OC1=O (some centres not stated)"
  recorded_value: "> 100 µM"
- compound: "Cc1cc2c(cc1C)[n+](=O)c(C(=O)N1CCN(c3ccc([N+](=O)[O-])cc3)CC1)c(C)n2[O-]"
  recorded_value: "> 100 µM"
- compound: "COC(=O)Nc1nc2cc3c(cc2s1)OCCO3"
  recorded_value: "> 50 µM"
- compound: "O=C(O)CCCCn1cnc2c(=S)nc[nH]c21"
  recorded_value: "> 100 µM"
- compound: "CCOC(=O)C1=C(C)NC(=O)NC1c1coc2cc(C)cc(C)c2c1=O (configuration not stated)"
  recorded_value: "> 100 µM"
- compound: "COC(=O)N/N=C/c1oc(-c2ccccc2)c(-c2ccccc2)c1[N+](=O)[O-]"
  recorded_value: "> 100 µM"
- compound: "N#Cc1c(NC(=O)CN2CCOCC2)sc2c1CCCC2"
  recorded_value: "> 25 µM"
- compound: "CN1C2C=C(c3ccccc3)CC1CC2 (configuration not stated)"
  recorded_value: "> 100 µM"
- compound: "c1ccc2c3c([nH]c2c1)C1c2[nH]c4ccccc4c2CCN1CC3"
  recorded_value: "33.7 µM"
- compound: "O=C1C(Cl)=C(Nc2cccc(O)c2)C(=O)N1c1ccc(Cl)c(Cl)c1"
  recorded_value: "35.5 µM"
- compound: "CN1CCN(C(=S)N(C(=O)c2ccco2)c2ccccc2)CC1"
  recorded_value: "> 100 µM"
- compound: "COc1ccccc1S(=O)Nc1ccccc1 (configuration not stated)"
  recorded_value: "> 100 µM"
- compound: "CN(C)CCCNc1nnc(NCCCN(C)C)c2c(=O)c3sccc3[nH]c12"
  recorded_value: "> 85.1 µM"
